Every entry's value here was drawn from patent US20170355774A1.

Target: T1, human GITR (amino acids M1-V241, NCBI Accession #NP_004186.1) expressed on cells (human, UniProt Q9Y5U5 26-241)
T1 sequence: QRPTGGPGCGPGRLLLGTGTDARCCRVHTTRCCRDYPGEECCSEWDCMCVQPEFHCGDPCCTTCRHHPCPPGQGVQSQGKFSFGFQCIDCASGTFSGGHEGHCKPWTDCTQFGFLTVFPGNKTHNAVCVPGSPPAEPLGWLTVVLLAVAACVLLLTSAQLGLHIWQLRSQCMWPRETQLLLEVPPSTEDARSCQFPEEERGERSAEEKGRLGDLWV
Assay: cell-based or functional assay
reported-metric: % Activation, NF-kB-Luc, non-anchored (%)
One number for each entry, in %.

-- ask Would you kindly share the measured % Activation, NF-kB-Luc, non-anchored for H4H14476P (antibody, human IgG4, V domains shown, human IgG4 (H4H)) VH: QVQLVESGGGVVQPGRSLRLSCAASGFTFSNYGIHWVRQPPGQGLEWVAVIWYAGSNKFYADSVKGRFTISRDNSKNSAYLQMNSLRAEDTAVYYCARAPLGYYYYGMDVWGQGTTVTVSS VL: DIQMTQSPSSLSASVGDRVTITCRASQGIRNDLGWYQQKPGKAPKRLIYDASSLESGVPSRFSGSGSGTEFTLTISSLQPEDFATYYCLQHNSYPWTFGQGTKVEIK ?
-- reply 10
